molecular target: SLC26A3 (Mus musculus); test: SLC26A3 inhibition, concentration-dependence (high throughput screening and structure-activity studies); assay type: cell-based; conditions: Class F, Table 2
Sequence (Q9WVC8 whole entry): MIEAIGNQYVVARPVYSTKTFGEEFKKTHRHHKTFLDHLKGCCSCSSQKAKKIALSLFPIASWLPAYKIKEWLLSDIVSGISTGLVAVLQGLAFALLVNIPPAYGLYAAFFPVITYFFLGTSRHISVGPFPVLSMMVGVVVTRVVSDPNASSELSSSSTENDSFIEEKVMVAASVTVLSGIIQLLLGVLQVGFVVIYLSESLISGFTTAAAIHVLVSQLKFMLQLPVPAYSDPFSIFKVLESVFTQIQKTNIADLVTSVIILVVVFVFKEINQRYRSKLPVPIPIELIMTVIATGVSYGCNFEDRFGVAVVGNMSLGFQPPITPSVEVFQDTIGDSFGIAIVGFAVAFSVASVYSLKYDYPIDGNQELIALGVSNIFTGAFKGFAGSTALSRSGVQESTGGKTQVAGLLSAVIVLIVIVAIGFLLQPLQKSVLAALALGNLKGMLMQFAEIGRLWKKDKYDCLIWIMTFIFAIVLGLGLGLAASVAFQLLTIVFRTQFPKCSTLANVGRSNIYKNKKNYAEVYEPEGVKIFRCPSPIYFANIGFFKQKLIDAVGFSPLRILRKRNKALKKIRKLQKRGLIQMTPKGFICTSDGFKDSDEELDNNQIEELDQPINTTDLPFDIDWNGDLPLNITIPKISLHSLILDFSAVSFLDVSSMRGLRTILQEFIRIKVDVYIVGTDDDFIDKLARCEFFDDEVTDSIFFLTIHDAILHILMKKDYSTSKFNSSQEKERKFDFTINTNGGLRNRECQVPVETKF
Reported Endpoint: pIC50
pIC50 is defined as minus the log10 of a concentration measured in mol/L.

Inquiry: Under SLC26A3 (Mus musculus): pIC50 value of `COc1cccc(C(=O)Nc2nnc(S(=O)(=O)Nc3cccc(C)c3)s2)c1` ?
Reply text: 6.51

Inquiry: What is its pIC50 for SLC26A3 (Mus musculus)? Entry: `Cc1cccc(NS(=O)(=O)c2nnc(NC(=O)c3cccc(C)c3)s2)c1`
Reply text: 6.33
